Source of measurements: PubChem BioAssay AID2060887

- Tested on: 782815-120-R-J1-PDC complex spheroid viability;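 also: spheroids exposed to compounds for 7 days before reading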
- assay_details: Anticancer human tumor 782815-120-R-J1-PDC patient-derived colon adenocarcinoma cell line growth inhibition [RAS]
- assay_conditions: curve of first compound; second compound 0.000949 µM
Listed next: entries and their corresponding IC50.

compound	test_system	IC50
C=CC(=O)Nc1cc(Nc2nccc(-c3cn(C)c4ccccc34)n2)c(OC)cc1N(C)CCN(C)C + CCn1c(-c2cccnc2C(C)OC)c2c3cc(ccc31)N1CCOC(CC(NC(=O)C(C(C)C)N(C)C(=O)C3(F)CCN(C(=O)C#CC(C)(C)N(C)C)CC3)C(=O)N3CCCC(N3)C(=O)OCC(C)(C)C2)C1	782815-120-R-J1-PDC complex spheroid viability	> 1000 nM
CC(Nc1ccc2c(c1)OCCn1cc(N3C(=O)OCC3C(F)F)nc1-2)C(N)=O (stereo not drawn) + CCn1c(-c2cc(N3CCN(C)CC3)cnc2C(C)OC)c2c3cc(ccc31)-c1csc(n1)CC(NC(=O)C1CC1C)C(=O)N1CCCC(N1)C(=O)OCC(C)(C)C2	782815-120-R-J1-PDC complex spheroid viability	> 10000 nM
CCc1c2c(nc3ccc(O)cc13)-c1cc3c(c(=O)n1C2)COC(=O)[C@]3(O)CC + CCn1c(-c2cc(N3CCN(C)CC3)cnc2C(C)OC)c2c3cc(ccc31)-c1csc(n1)CC(NC(=O)C1CC1C)C(=O)N1CCCC(N1)C(=O)OCC(C)(C)C2	782815-120-R-J1-PDC complex spheroid viability	2.4 nM
CCc1c2c(nc3ccc(O)cc13)-c1cc3c(c(=O)n1C2)COC(=O)[C@]3(O)CC + CCn1c(-c2cccnc2C(C)OC)c2c3cc(ccc31)N1CCOC(CC(NC(=O)C(C(C)C)N(C)C(=O)C3(F)CCN(C(=O)C#CC(C)(C)N(C)C)CC3)C(=O)N3CCCC(N3)C(=O)OCC(C)(C)C2)C1	782815-120-R-J1-PDC complex spheroid viability	3.67 nM
CC(Nc1ccc2c(c1)OCCn1cc(N3C(=O)OCC3C(F)F)nc1-2)C(N)=O (stereo not drawn) + CCn1c(-c2cccnc2C(C)OC)c2c3cc(ccc31)N1CCOC(CC(NC(=O)C(C(C)C)N(C)C(=O)C3(F)CCN(C(=O)C#CC(C)(C)N(C)C)CC3)C(=O)N3CCCC(N3)C(=O)OCC(C)(C)C2)C1	782815-120-R-J1-PDC complex spheroid viability	> 10000 nM
CCN1CCN(Cc2ccc(Nc3ncc(F)c(-c4cc(F)c5nc(C)n(C(C)C)c5c4)n3)nc2)CC1 + CCn1c(-c2cc(N3CCN(C)CC3)cnc2C(C)OC)c2c3cc(ccc31)-c1csc(n1)CC(NC(=O)C1CC1C)C(=O)N1CCCC(N1)C(=O)OCC(C)(C)C2	782815-120-R-J1-PDC complex spheroid viability	> 1000 nM
Nc1ccn(C2OC(CO)C(O)C2(F)F)c(=O)n1 (stereo not drawn) + CCn1c(-c2cc(N3CCN(C)CC3)cnc2C(C)OC)c2c3cc(ccc31)-c1csc(n1)CC(NC(=O)C1CC1C)C(=O)N1CCCC(N1)C(=O)OCC(C)(C)C2	782815-120-R-J1-PDC complex spheroid viability	20.7 nM
CC(C)NCC(C(=O)N1CCN(c2ncnc3c2C(C)CC3O)CC1)c1ccc(Cl)cc1 (stereo not drawn) + CCn1c(-c2cc(N3CCN(C)CC3)cnc2C(C)OC)c2c3cc(ccc31)-c1csc(n1)CC(NC(=O)C1CC1C)C(=O)N1CCCC(N1)C(=O)OCC(C)(C)C2	782815-120-R-J1-PDC complex spheroid viability	> 10000 nM
Cc1nc(N2CCC3(CC2)COC(C)C3N)c(CO)nc1Sc1ccnc(N)c1Cl (stereo not drawn) + CCn1c(-c2cccnc2C(C)OC)c2c3cc(ccc31)N1CCOC(CC(NC(=O)C(C(C)C)N(C)C(=O)C3(F)CCN(C(=O)C#CC(C)(C)N(C)C)CC3)C(=O)N3CCCC(N3)C(=O)OCC(C)(C)C2)C1	782815-120-R-J1-PDC complex spheroid viability	> 10000 nM
C=CC(=O)Nc1cc(Nc2nccc(-c3cn(C)c4ccccc34)n2)c(OC)cc1N(C)CCN(C)C + CCn1c(-c2cc(N3CCN(C)CC3)cnc2C(C)OC)c2c3cc(ccc31)-c1csc(n1)CC(NC(=O)C1CC1C)C(=O)N1CCCC(N1)C(=O)OCC(C)(C)C2	782815-120-R-J1-PDC complex spheroid viability	> 1000 nM
C=CC(=O)N1CCN(c2nc(OCC3CCCN3C)nc3c(F)c(-c4nc(N)cc(C)c4C(F)(F)F)c(Cl)cc23)C(C)C1 (stereo not drawn) + CCn1c(-c2cccnc2C(C)OC)c2c3cc(ccc31)N1CCOC(CC(NC(=O)C(C(C)C)N(C)C(=O)C3(F)CCN(C(=O)C#CC(C)(C)N(C)C)CC3)C(=O)N3CCCC(N3)C(=O)OCC(C)(C)C2)C1	782815-120-R-J1-PDC complex spheroid viability	> 1000 nM
O=C(c1ccc(F)c(F)c1Nc1ccc(I)cc1F)N1CC(O)([C@@H]2CCCCN2)C1 + CCn1c(-c2cc(N3CCN(C)CC3)cnc2C(C)OC)c2c3cc(ccc31)-c1csc(n1)CC(NC(=O)C1CC1C)C(=O)N1CCCC(N1)C(=O)OCC(C)(C)C2	782815-120-R-J1-PDC complex spheroid viability	24.1 nM
NC1c2ccccc2OC12CCN(c1cnc3c(N4CCCc5ncccc54)n[nH]c3n1)CC2 (stereo not drawn) + CCn1c(-c2cc(N3CCN(C)CC3)cnc2C(C)OC)c2c3cc(ccc31)-c1csc(n1)CC(NC(=O)C1CC1C)C(=O)N1CCCC(N1)C(=O)OCC(C)(C)C2	782815-120-R-J1-PDC complex spheroid viability	> 10000 nM
